# Subject of test: human C0-C2 region of cardiac myosin-binding protein-C (hC0-C2) (human) (UniProt Q14896)
# Assay: solid-phase binding assay (SPBA); 20 μM C0-C2 (bait) adsorbed onto microtiter plates overnight at 4 °C; 0-20 μM recombinant myosin S2 (prey) added; bound S2 detected with polyclonal anti-S2 antibody and Alexa Fluor 568 secondary antibody; intensity normalised to that at maximal S2; one-phase association fit for Bmax and Kd
pKd: −log10 of the molar value.
The reader will find reported pKd values listed item by item below.

Binder	pKd
human recombinant proximal S2 protein with E924K mutation (hS2^E924K) (domain or fragment, UniProt P12883 838-963, looked up, human β-myosin heavy chain (MYH7), proximal S2, residues 838-963, with the HCM-causing mutation E924K; mutation found in HCM patients, introduced by site-directed mutagenesis; coiled coil in low-salt buffer by CD) PLLKSAEREKEMASMKEEFTRLKEALEKSEARRKELEEKMVSLLQEKNDLQLQVQAEQDNLADAEERCDQLIKNKIQLEAKVKEMNKRLEDEEEMNAELTAKKRKLEDECSELKRDIDDLELTLAK	5.37
human recombinant proximal S2 protein with R870H mutation (hS2^R870H) (domain or fragment, UniProt P12883 838-963, looked up, human β-myosin heavy chain (MYH7), proximal S2, residues 838-963, with the HCM-causing mutation R870H; mutation found in HCM patients, introduced by site-directed mutagenesis; coiled coil in low-salt buffer by CD) PLLKSAEREKEMASMKEEFTRLKEALEKSEARHKELEEKMVSLLQEKNDLQLQVQAEQDNLADAEERCDQLIKNKIQLEAKVKEMNERLEDEEEMNAELTAKKRKLEDECSELKRDIDDLELTLAK	5.20
human recombinant proximal S2 WT protein (hS2^Wt) (domain or fragment, UniProt P12883 838-963, looked up, pET28a+ vector; also called WT hS2; human cardiac myosin S2) PLLKSAEREKEMASMKEEFTRLKEALEKSEARRKELEEKMVSLLQEKNDLQLQVQAEQDNLADAEERCDQLIKNKIQLEAKVKEMNERLEDEEEMNAELTAKKRKLEDECSELKRDIDDLELTLAK	5.30
human recombinant proximal S2 protein with E930Δ mutation (hS2^E930Δ) (domain or fragment, UniProt P12883 838-963, looked up, human β-myosin heavy chain (MYH7), proximal S2, residues 838-963, with the HCM-causing deletion of E930; mutation found in HCM patients, introduced by site-directed mutagenesis; coiled coil in low-salt buffer by CD) PLLKSAEREKEMASMKEEFTRLKEALEKSEARRKELEEKMVSLLQEKNDLQLQVQAEQDNLADAEERCDQLIKNKIQLEAKVKEMNERLEDEEMNAELTAKKRKLEDECSELKRDIDDLELTLAK	5.18

FYI, the data here is from paper PMC8239744.
